assay: Bioavailability in the systemic circulation after 30 minutes was determined after intraduodenal dose of 10 mg/kg in rat by renin inhibition assay; assay type: ADME, organism-based; conditions: plasma (systemic circulation), read-out: Plasma level
PROPERTY: concentration at 0.5 h (ng/mL)

Query: Given CC(C)C[C@H](O)[C@H](O)[C@H](CC1CCCCC1)NC(=O)[C@H](Cc1cscn1)NC(=O)[C@@H](CC(=O)N(C)CCN(C)C)Cc1ccccc1 , state its recorded concentration at 0.5 h.
Response: 450

(A) CC(C)C[C@H](O)[C@H](O)[C@H](CC1CCCCC1)NC(=O)[C@H](Cc1cscn1)NC(=O)[C@H](Cc1ccccc1)CS(=O)(=O)N1CCN(C)CC1 [ZANKIREN]
(B) CC(C)C[C@H](O)[C@H](O)[C@H](CC1CCCCC1)NC(=O)[C@H](Cc1cscn1)NC(=O)[C@H](Cc1ccccc1)CS(=O)(=O)C(C)(C)C
(C) CC(C)C[C@H](O)[C@H](O)[C@H](CC1CCCCC1)NC(=O)[C@H](Cc1cscn1)NC(=O)[C@@H](CC(=O)N(C)CCN1CCN(C)CC1)Cc1ccccc1
(D) CC(C)C[C@H](O)[C@H](O)[C@H](CC1CCCCC1)NC(=O)[C@H](Cc1cscn1)NC(=O)[C@@H](CC(=O)N(C)CCc1ccccn1)Cc1ccccc1
Query: Put these in order: smallest concentration at 0.5 h first, largest last. Answer by listing the labels in the order asked for.
Response: B, C, D, A
